# key: entry, value: AUC0-t
procedure summary: Rat pharmacokinetic test
Format: in vivo
protocol conditions: male, plasma, po, 20 mg/kg, gavage, 20 mg/kg, read-out: AUC0-t
Provide only the numeric value, understood in ng·h/mL.

compound="CCOc1cc2c(cc1OC)CCN(C=O)[C@H]2CCc1c[nH]c2cc(C)ccc12 [(S)-C7]" assay_value=9230

In the following, a different compound is considered.
Value lookup for AUC0-t; key = CCOc1cc2c(cc1OC)CCN(C=O)[C@H]2CCc1c[nH]c2ccc(OC)cc12 [(S)-C8]
508

* * *

Listing of entries alongside the reported Cell survival rate/%.
System: RAW 264.7 cells
procedure summary: Cytotoxicity on RAW 264.7 cells (CCK-8 method)
Assay type: cell-based, mouse
protocol conditions: RAW 264.7, 0.5 μM
# include the unit after the value

compound="COc1cc2c(cc1OC1CCCC1)C(CCc1c[nH]c3ccc(Br)cc13)N(C=O)CC2 (centres unmarked) [Compound C1]" study_system="RAW 264.7 cells" assay_metric="Cell survival rate/%" assay_value=100.9%
compound="CCOc1cc2c(cc1OC)CCN(C(=O)COC)[C@H]2CCc1c[nH]c2ccccc12 [(S)-B12]" study_system="RAW 264.7 cells" assay_metric="Cell survival rate/%" assay_value=83.8%
compound="COc1cc2c(cc1OC)[C@H](CCc1c[nH]c3cc(F)ccc13)N(C=O)CC2 [(S)-C6]" study_system="RAW 264.7 cells" assay_metric="Cell survival rate/%" assay_value=108.6%
compound="CCOc1cc2c(cc1OC)CCN(C=O)[C@H]2Cc1c[nH]c2ccccc12 [(S)-C10]" study_system="RAW 264.7 cells" assay_metric="Cell survival rate/%" assay_value=89.1%
compound="COc1cc2c(cc1OC)C(CCc1c[nH]c3ccccc13)N(CCS(C)(=O)=O)CC2 (centres unmarked) [Compound B8]" study_system="RAW 264.7 cells" assay_metric="Cell survival rate/%" assay_value=113.4%

Turning now to a further record.
Would you mind telling me what Cell survival rate/% value was observed for COc1cc2c(cc1OC1CCCC1)[C@H](CCc1c[nH]c3cc(C)ccc13)N(C=O)CC2 [(S)-C3] ?
88.2%
